Task for the reader: assign each of the following sequences its reported self-splicing fitness (ln).
Assay Details: self-splicing fitness, log relative to wild type (ln ratio); higher = more splicing; Tetrahymena group I intron in knt gene, E. coli kanamycin selection, DiMSum; sequences stand for … in CUCUCU…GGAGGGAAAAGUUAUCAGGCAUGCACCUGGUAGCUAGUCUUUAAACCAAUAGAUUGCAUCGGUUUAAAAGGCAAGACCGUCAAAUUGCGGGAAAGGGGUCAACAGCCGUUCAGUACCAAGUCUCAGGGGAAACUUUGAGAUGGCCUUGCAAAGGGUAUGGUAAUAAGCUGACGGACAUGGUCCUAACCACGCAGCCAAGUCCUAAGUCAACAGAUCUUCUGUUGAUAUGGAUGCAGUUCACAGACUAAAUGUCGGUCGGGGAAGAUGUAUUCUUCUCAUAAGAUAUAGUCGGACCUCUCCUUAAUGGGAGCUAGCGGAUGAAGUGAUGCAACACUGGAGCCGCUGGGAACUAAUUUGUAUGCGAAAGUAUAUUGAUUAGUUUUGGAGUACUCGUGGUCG;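 note: selection with 25 µg/mL kanamycin versus none on LB agar overnight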
Measurement Parameters: 37 °C
Form: value (number only, do not type unit).

Request: Returns the measured self-splicing fitness (ln) for the input sequence. Input: UUUUAGCAAUAUUACGGCGG
Result: -0.137

Request: Another sequence to check: AUAGAGCAAUAUUACGUGAU
Result: -0.825

Request: Another sequence to check: CGGAAGCAAUAUUACGCUUA
Result: -2.15

Request: Another sequence to check: GUUAAGCAAUAUUACGUAAU
Result: -1.49

Request: Another sequence to check: AAUUAGCAAUAUUACGACAU
Result: -0.0165

Request: Another sequence to check: CUCGAGCAAUAUUACGGGUC
Result: -1.77

Request: Another sequence to check: AAGGAGCAAUAUUACGGCUU
Result: -1.64

Request: Another sequence to check: ACCUAGCAAUAUUACGAACU
Result: 0.0875

Request: Another sequence to check: AAGAAGCAAUAUUACGUUUU
Result: -1.33

Request: Another sequence to check: GUGAAGCAAUAUUACGCGGC
Result: -1.24

Request: Another sequence to check: UCUGAGCAAUAUUACGGCUG
Result: -2.22

Request: Another sequence to check: UCAAAGCAAUAUUACGUGUG
Result: -0.749

Request: Another sequence to check: CUCAAGCAAUAUUACGUCAA
Result: -2.31

Request: Another sequence to check: UAGAAGCAAUAUUACGCCCC
Result: -1.63

Request: Another sequence to check: UCAGAGCAAUAUUACGUUCG
Result: -1.07
